test: 6 month dry powder stability, HPLC assay; assay type: physicochemical; details: 25 ° C., 0 months
readout_kind: HPLC assay (% w/w on anhydrous and solvent free basis)

- compound: "C[C@H](NP(=O)(OC[C@H]1O[C@@H](n2cc(F)c(=O)[nH]c2=O)CC1O)Oc1cccc2ccccc12)C(=O)OCc1ccccc1 (stereo partly shown) [Example 3, Batch 2]"
  value: "100.2 % w/w"
- compound: "C[C@H](NP(=O)(OC[C@H]1O[C@@H](n2cc(F)c(=O)[nH]c2=O)CC1O)Oc1cccc2ccccc12)C(=O)OCc1ccccc1 (stereo partly shown) [Example 3, Batch 3]"
  value: "100.3 % w/w"
- compound: "C[C@H](NP(=O)(OC[C@H]1O[C@@H](n2cc(F)c(=O)[nH]c2=O)CC1O)Oc1cccc2ccccc12)C(=O)OCc1ccccc1 (stereo partly shown) [Example 3, Batch 1]"
  value: "100.4 % w/w"
- compound: "C[C@H](NP(=O)(OC[C@H]1O[C@@H](n2cc(F)c(=O)[nH]c2=O)CC1O)Oc1cccc2ccccc12)C(=O)OCc1ccccc1 (stereo partly shown) [Comparative Example 4]"
  value: "99.7 % w/w"

* * *

# Alpha Naphthol by HPLC (% w/w) per record follows
Assay: 6 month dry powder stability, Alpha Naphthol content by HPLC
Assay type: physicochemical
Details: 40 ° C., 1 month
Experimental: NUC-3373 prepared according to Example 3 and Comparative Example 4 was packed into a transparent LDPE bag which was then filled with nitrogen and tied with a strip seal. This bag was then placed into another transparent LDPE bag which was also filled with nitrogen. A silica gel packet was placed between the two bags before the outermost bag was tied with a strip seal. […] The Alpha Naphthol content of the same batches was also determined by HPLC. […]

- molecule: "C[C@H](NP(=O)(OC[C@H]1O[C@@H](n2cc(F)c(=O)[nH]c2=O)CC1O)Oc1cccc2ccccc12)C(=O)OCc1ccccc1 (stereo partly shown) [Example 3, Batch 2]"
  units_text: "% w/w"
  Alpha Naphthol by HPLC (% w/w): 0.44
- molecule: "C[C@H](NP(=O)(OC[C@H]1O[C@@H](n2cc(F)c(=O)[nH]c2=O)CC1O)Oc1cccc2ccccc12)C(=O)OCc1ccccc1 (stereo partly shown) [Comparative Example 4]"
  units_text: "% w/w"
  Alpha Naphthol by HPLC (% w/w): 0.18
- molecule: "C[C@H](NP(=O)(OC[C@H]1O[C@@H](n2cc(F)c(=O)[nH]c2=O)CC1O)Oc1cccc2ccccc12)C(=O)OCc1ccccc1 (stereo partly shown) [Example 3, Batch 3]"
  units_text: "% w/w"
  Alpha Naphthol by HPLC (% w/w): 0.17
- molecule: "C[C@H](NP(=O)(OC[C@H]1O[C@@H](n2cc(F)c(=O)[nH]c2=O)CC1O)Oc1cccc2ccccc12)C(=O)OCc1ccccc1 (stereo partly shown) [Example 3, Batch 1]"
  units_text: "% w/w"
  Alpha Naphthol by HPLC (% w/w): 0.15
